molecules and their reported solubility at 90 min
- Test: Aqueous solubility determination (Millipore Multiscreen solubility filter plate, UV/vis)
- Format: physicochemical
- Run conditions: kinetic from dmso stock; Universal Aqueous Buffer pH 7.4, 90 minutes at room temperature
API: value field is a number in µM; no unit string.

Check out these entries, answers already filled in.
[[record]]
molecule = "COC(=O)[C@]12CCC(C)(C)C[C@H]1[C@H]1C(=O)C[C@@H]3[C@@]4(C)C=C(C#N)C(=O)C(C)(C)[C@@H]4CC[C@@]3(C)[C@]1(C)CC2"
meas_value = 13.6

[[record]]
molecule = "CC1(C)CC[C@]2(C(=O)NCC(F)(F)F)CC[C@]3(C)[C@H](C(=O)C=C4[C@@]5(C)C=C(C#N)C(=O)C(C)(C)[C@@H]5CC[C@]43C)[C@@H]2C1 [Compound 63102, reference compound]"
meas_value = 0.06


As a next step, examine the molecule that follows.
Qu. Data request, read-out solubility at 90 min, for CC1(C)CC[C@]2(N)CC[C@]3(C)[C@H](C(=O)C=C4[C@@]5(C)C=C(C#N)C(=O)C(C)(C)[C@@H]5CC[C@]43C)[C@@H]2C1
Ans. 164

---

- System: IFNγ-induced NO production in RAW264.7 macrophages
- Test: Suppression of IFNγ-induced NO production (Griess reagent)
- Assay type: cell-based, mouse
- Run conditions: Mus musculus; RAW264.7, 20 ng/ml IFNγ for 24 hours, 2 hours pre-treatment
molecules and their reported IC50

Solved cases below.
[[record]]
molecule = "COC(=O)[C@]12CCC(C)(C)C[C@H]1[C@H]1C(=O)C=C3[C@@]4(C)C=C(C(F)(F)F)C(=O)C(C)(C)[C@@H]4CC[C@@]3(C)[C@]1(C)CC2 [Compound 63320]"
meas_value = "~0.012 µM"

[[record]]
molecule = "COC(=O)[C@]12CCC(C)(C)C[C@H]1[C@H]1C(=O)C=C3[C@@]4(C)C=C(C#N)C(=O)C(C)(C)[C@@H]4C(=O)C[C@@]3(C)[C@]1(C)CC2 [Compound 63309]"
meas_value = "~0.012 µM"


Qu. Give its IC50 value. Item: COC(=O)[C@]12CCC(C)(C)C[C@H]1[C@H]1C(=O)C=C3[C@@]4(C)[C@@H](O)[C@](O)(C#N)C(=O)C(C)(C)[C@@H]4CC[C@@]3(C)[C@]1(C)CC2 [Compound 63316]
Ans. ~0.08 µM

Qu. Look up IC50: COC(=O)[C@]12CCC(C)(C)C[C@H]1[C@H]1C(=O)C=C3[C@@]4(C)C=C(C(=O)NS(C)(=O)=O)C(=O)C(C)(C)[C@@H]4CC[C@@]3(C)[C@]1(C)CC2 [Compound 402-08]
Ans. 0.062 µM

Qu. Which value of IC50 has been reported for COC(=O)[C@]12CCC(C)(C)C[C@H]1[C@H]1C(=O)C=C3[C@@]4(C)CC(C#N)=C(OC(C)=O)C(C)(C)[C@@H]4CC[C@@]3(C)[C@]1(C)CC2 [Compound 402-47] in the records?
Ans. > 0.2 µM

Qu. IC50 lookup needed for COC(=O)[C@]12CCC(C)(C)C[C@H]1[C@H]1C(=O)C=C3[C@@]4(C)C=C(C#N)C(=O)[C@](C)(CO)[C@@H]4CC[C@@]3(C)[C@]1(C)CC2 [Compound 63301] , thanks.
Ans. ~0.0032 µM

Qu. Entry COCOC[C@@]1(C)C(=O)C(C#N)=C[C@]2(C)C3=CC(=O)[C@@H]4[C@@H]5CC(C)(C)CC[C@]5(C(=O)OC)CC[C@@]4(C)[C@]3(C)CC[C@@H]12 [Compound 63302] : reported IC50 = ?
Ans. ~0.018 µM
